Every entry's value here was drawn from ChEMBL document CHEMBL1146335.

# Protocol details: Stability in phosphate buffer in pH 6 at 37 degC at 500 uM
# Assay type: physicochemical
# Run parameters: phosphate buffer, pH 6
Measure name: half-life at 500 µM
Just so you know, I need the unit written after the number.

**Query** Look up half-life at 500 µM for this molecule: CC(C)C(N)C(=O)OCCOP1(=O)CO[C@@H](Cn2ccc(N)nc2=O)CO1 (stereo partly specified)
**Result** 16 h

---

# Protocol details: Half life in rat liver in 37degC at 500 uM
# Assay type: ADME, tissue-based
# Run parameters: rat liver
Measure name: half-life at 500 µM (min)
The response must be a number in min with no trailing unit.

**Query** Given the entry CC(C)C(N)C(=O)OCCOP1(=O)CO[C@@H](Cn2ccc(N)nc2=O)CO1 (stereo partly specified) , report its measured half-life at 500 µM.
**Result** 3.7
